target: PKA (Homo sapiens); experiment: PKA inhibition; format: biochemical; settings: Table 1; read-out: PKA activity (IC50)
measured.quantity: IC50 (nM)

compound="COc1ccc(O)c(C(=O)c2ccc(C(=O)OC3CNCC3NC(=O)c3ccc(O)cc3)cc2)c1F (stereo not shown) [Compound B-7]" units_text=nM measured_number=38

* * *

Molecular target: UniProt:Q13976
Sequence (Q13976 1-671): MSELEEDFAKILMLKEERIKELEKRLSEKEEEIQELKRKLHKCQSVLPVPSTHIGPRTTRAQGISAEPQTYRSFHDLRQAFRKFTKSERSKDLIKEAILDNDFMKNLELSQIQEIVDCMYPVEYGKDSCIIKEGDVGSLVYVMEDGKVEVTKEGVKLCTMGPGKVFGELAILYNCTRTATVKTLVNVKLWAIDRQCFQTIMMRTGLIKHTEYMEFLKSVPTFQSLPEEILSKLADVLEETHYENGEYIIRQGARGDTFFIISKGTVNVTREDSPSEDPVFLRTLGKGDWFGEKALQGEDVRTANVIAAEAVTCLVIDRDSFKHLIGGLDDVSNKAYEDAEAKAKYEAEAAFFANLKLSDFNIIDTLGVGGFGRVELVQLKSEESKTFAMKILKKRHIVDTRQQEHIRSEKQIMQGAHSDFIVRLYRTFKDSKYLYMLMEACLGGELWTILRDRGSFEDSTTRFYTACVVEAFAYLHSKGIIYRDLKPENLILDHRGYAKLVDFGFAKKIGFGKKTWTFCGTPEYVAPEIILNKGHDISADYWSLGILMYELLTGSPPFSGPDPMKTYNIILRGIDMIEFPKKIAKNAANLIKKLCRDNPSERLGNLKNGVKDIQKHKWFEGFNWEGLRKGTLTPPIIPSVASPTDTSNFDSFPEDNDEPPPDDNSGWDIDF
Test: PKG inhibition: transfer of gamma-32P from ATP to peptide substrate
Type: biochemical
Conditions: IC50 (PKG), text b321
measured.quantity: IC50 (nM)

molecule=O=C(N[C@@H]1CNC[C@H]1NC(=O)c1ccc2[nH]ncc2c1)c1ccc(O)cc1 system_name=UniProt:Q13976 measured_quantity=IC50 units_text=nM measured_number=70

* * *

target: PKG (Homo sapiens, UniProt Q13976); assay: PKG inhibition: transfer of gamma-32P from ATP to peptide substrate; format: biochemical; conditions: IC50 with PKG, Example 12
measured.quantity: IC50 (nM)

molecule="COCOc1ccc(OC)c(F)c1C(=O)c1ccc(C(=O)OC2CNCC2NC(=O)c2ccc(O)cc2)cc1 (stereo not shown)" measured_number=40

* * *

target: PKG (Homo sapiens, UniProt Q13976); assay: PKG inhibition: transfer of gamma-32P from ATP to peptide substrate; assay type: biochemical; conditions: PKG activity (IC50), Table 1
pIC50: −log10 of the molar value.
Reported pIC50 values follow for various compounds
measured.quantity: pIC50

compound="COCOc1ccc(OC)c(F)c1C(=O)c1ccc(C(=O)OC2CNCC2NC(=O)c2ccc(O)cc2)cc1 (stereo not shown) [Compound B-6]" measured_quantity=pIC50 measured_number=7.40
compound="O=C(NC1CNCC1OC(=O)c1cc(O)c(C(=O)c2c(O)cccc2C(=O)O)c(O)c1)c1ccc(O)cc1 (stereo not shown) [Compound B-2, reference compound]" measured_quantity=pIC50 measured_number=8.15
compound="COc1ccc(O)c(C(=O)c2ccc(C(=O)OC3CNCC3NC(=O)c3ccc(O)cc3)cc2)c1F (stereo not shown) [Compound B-7]" measured_quantity=pIC50 measured_number=7.40
